- Target desc: human Epidermal Growth Factor Receptor (huEGFR) over-expressed in mcl-1-/- mouse embryonic fibroblasts (human, UniProt P00533 25-1210)
- Experimental protocol: cell-based or functional assay
This listing pairs binders with measured huEGFR^+ mcl-1^-/- MEF EC50.
Entry rule: numbers only, all in nM.

[Q] Fill in the blank: the reported huEGFR^+ mcl-1^-/- MEF EC50 of AbB-YY (antibody, V domains shown, synthon YY on reduced interchain Cys) VH: EVQLQESGPGLVKPSQTLSLTCTVSGYSISNDFAWNWIRQPPGKGLEWMGYISYKGNTRYQPSLKSRITISRDTSKNQFFLKLNSVTAADTATYYCVTASRGFPWWGQGTLVTVSS VL: DIQMTQSPSSMSVSVGDRVTITCHSSQDINSNIGWLQQKPGKSFKGLIYHGTNLDDGVPSRFSGSGSGTDYTLTISSLQPEDFATYYCVQYAQFPWTFGGGTKLEIKR is ____.
[A] 51

[Q] Fill in the blank: the reported huEGFR^+ mcl-1^-/- MEF EC50 of AbK-YG (antibody, V domains shown, synthon YG on reduced interchain Cys) VH: EVQLQESGPGLVKPSQTLSLTCTVSGYSISRDFAWNWIRQPPGKGLEWMGYISYNGNTRYQPSLKSRITISRDTSKNQFFLKLNSVTAADTATYYCVTASRGFPWWGQGTLVTVSS VL: DIQMTQSPSSMSVSVGDRVTITCHSSQDITYNVGWLQQKPGKSFKGLIYHGSNLDHGVPSRFSGSGSGTDYTLTISSLQPEDFATYYCVQYDDFPWTFGGGTKLEIKR is ____.
[A] 37
